Some compounds, each annotated with its measured EC50.
- target-system: human Farnesoid X receptor ligand-binding domain/Gal4 DNA binding domain chimera (Homo sapiens (Human), UniProt Q96RI1)
- Sequence (Q96RI1 262-486, change not shown): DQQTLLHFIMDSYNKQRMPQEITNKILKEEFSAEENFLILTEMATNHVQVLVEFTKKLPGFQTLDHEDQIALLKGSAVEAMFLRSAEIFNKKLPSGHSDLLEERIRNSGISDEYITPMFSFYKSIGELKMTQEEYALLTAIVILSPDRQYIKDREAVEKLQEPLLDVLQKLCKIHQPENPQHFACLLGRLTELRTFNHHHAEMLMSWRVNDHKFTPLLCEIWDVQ
- Sequence (P04386 1-147 partner): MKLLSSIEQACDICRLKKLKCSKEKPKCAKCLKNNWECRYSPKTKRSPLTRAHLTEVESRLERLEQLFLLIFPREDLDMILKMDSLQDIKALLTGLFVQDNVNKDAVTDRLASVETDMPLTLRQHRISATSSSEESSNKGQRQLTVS
- experimental-details: Cell-based assay of FXR activation (FXR-UAS-bla HEK 293T beta-lactamase reporter)
- protocol-conditions: cellular FXR beta-lactamase reporter assay, FXR-UAS-bla HEK 293T cells, 16 h; pEC50 = -log EC50
quantity-name: EC50 (nM)

> print(dat)
                                    compound  reported.measurement
 1  CC(O)CCS(=O)(=O)NC(=O)c1ccc(N2C[C@@H]3C[C@H]2C[C@H]3OCc2c(-c3c(Cl)cccc3Cl)noc2C2CC2)cc1 (stereo partly drawn)                     1
 2  O=C(O)c1cc(F)c2nc(N3C[C@@H]4C[C@H]3C[C@H]4OC(=O)c3c(C45CCC(CC4)CC5)noc3C3CC3)sc2c1                   251
 3  O=C(NS(=O)(=O)C1CC1)c1ccc(N2C[C@@H]3C[C@H]2C[C@H]3OCc2c(-c3c(Cl)cccc3Cl)noc2C2CC2)nc1                    10
 4  Cc1cccc(C)c1-c1noc(C2CC2)c1CO[C@@H]1C[C@@H]2C[C@H]1CN2c1ccc(C(=O)O)cc1F                  3.98
 5  O=C(O)CNC(=O)c1ccc(N2C[C@@H]3C[C@H]2C[C@H]3OCc2c(-c3c(Cl)cccc3Cl)noc2C2CC2)cc1                    20
 6  COc1cc(Cl)c(-c2noc(C3CC3)c2CO[C@@H]2C[C@@H]3C[C@H]2CN3c2nc3c(F)cc(C(=O)O)cc3s2)c(Cl)c1                  39.8
 7  CCCS(=O)(=O)NC(=O)c1ccc(N2C[C@@H]3C[C@H]2C[C@H]3OCc2c(-c3c(Cl)cccc3Cl)noc2C2CC2)nc1                  2.51
 8  O=C(O)c1cc(F)c2nc(N3C[C@@H]4C[C@H](OC(=O)c5c(-c6c(Cl)cccc6Cl)noc5C5CC5)[C@H]3C4)sc2c1                   501
 9  O=C(O)Cc1ccc(N2C[C@@H]3C[C@H]2C[C@H]3OCc2c(-c3c(Cl)cccc3Cl)noc2C2CC2)c(F)c1                    10
10  O=C(NS(=O)(=O)CCCCCCCCCCN1CCC1)c1ccc(N2C[C@@H]3C[C@H]2C[C@H]3OCc2c(-c3c(Cl)cccc3Cl)noc2C2CC2)c(F)c1                     1
11  O=C(O[C@@H]1C[C@@H]2C[C@H]1CN2c1ccc(-c2nn[nH]n2)cc1)c1c(-c2c(Cl)cccc2Cl)noc1C1CC1                  15.8
12  O=C(O)c1cc(C2CCOCC2)c2nc(N3C[C@@H]4C[C@H]3C[C@H]4OCc3c(-c4c(Cl)cccc4Cl)noc3C3CC3)sc2c1                 0.316
13  O=C(O)CCc1ccc(N2C(=O)[C@@H]3C[C@H]2C[C@H]3OCc2c(-c3c(Cl)cccc3Cl)noc2C2CC2)cc1                  6.31
14  O=C(NCCS(=O)(=O)C1CC1)c1ccc(N2C[C@@H]3C[C@H]2C[C@H]3OCc2c(-c3c(Cl)cccc3Cl)noc2C2CC2)cc1F                 0.794
15  O=C(O)c1cc(OC(F)(F)F)c2nc(N3C[C@@H]4C[C@H]3C[C@H]4OCc3c(-c4ccccc4C(F)(F)F)noc3C3CC3)sc2c1                 0.631
16  CCCS(=O)(=O)NC(=O)c1ccc(N2C[C@@H]3C[C@H]2C[C@H]3OCc2c(-c3c(Cl)cccc3Cl)noc2C2(F)CC2)nc1                  5.01
17  CS(=O)(=O)CCNC(=O)c1ccc(N2C[C@@H]3C[C@H]2C[C@H]3OCc2c(-c3c(Cl)cccc3Cl)noc2C2CC2)cc1F                  1.26
18  O=C(O)c1cc([C@@H]2CCOC2)c2nc(N3C[C@@H]4C[C@H]3C[C@H]4OCc3c(C4CCC5(CC4)CC5)noc3C3CC3)sc2c1                  15.8
19  Cc1cccc(Cl)c1-c1noc(C2CC2)c1CO[C@@H]1C[C@@H]2C[C@H]1CN2c1ccc(C(=O)O)cc1                  2.51
20  O=C(NS(=O)(=O)C1CCOC1)c1ccc(N2C[C@@H]3C[C@H]2C[C@H]3OCc2c(-c3c(Cl)cccc3Cl)noc2C2CC2)cc1 (stereo partly drawn)                   0.1
21  Cc1cccc(Cl)c1-c1noc(C2CC2)c1CO[C@@H]1C[C@@H]2C[C@H]1CN2c1nc2c(O[C@H]3CCOC3)cc(C(=O)O)cc2s1                 0.631
22  O=C(O)[C@H]1CCc2cc(N3C[C@@H]4C[C@H]3C[C@H]4OCc3c(-c4c(Cl)cccc4Cl)noc3C3CC3)ccc2C1 (single isomer, unassigned)                  15.8
23  O=C(O)c1ccc(N2C[C@@H]3C[C@H]2C[C@H]3OCc2c(-c3c(Cl)cccc3Cl)noc2C2(F)CC2)cc1                     2
24  CS(=O)(=O)NC(=O)c1ccc(N2C[C@@H]3C[C@H]2C[C@H]3OC(=O)c2c(-c3c(Cl)cccc3Cl)noc2C2CC2)c(F)c1                  6.31

====

Some compounds, each annotated with its measured Emax.
- target-system: human Farnesoid X receptor ligand-binding domain/Gal4 DNA binding domain chimera (Homo sapiens (Human), UniProt Q96RI1)
- experimental-details: Cell-based assay of FXR activation (FXR-UAS-bla HEK 293T beta-lactamase reporter)
- protocol-conditions: HEK-293T; extent of activation relative to GW4064; cellular FXR beta-lactamase reporter assay; read-out: % Efficacy
quantity-name: Emax

compound	reported-measurement
O=C(O)c1cc(F)c2nc(N3C[C@@H]4C[C@H]3C[C@@H]4OC(=O)c3c(-c4c(Cl)cccc4Cl)noc3C3CC3)sc2c1 [Compound I-34]	15%
O=C(NS(=O)(=O)C1CC1)c1cc(F)c2nc(N3C[C@@H]4C[C@H]3C[C@H]4OCc3c(-c4c(Cl)cccc4Cl)noc3C3CC3)sc2c1 [Compound I-30]	114%
O=C(O)c1ccc(N2C[C@@H]3C[C@H]2C[C@H]3OCc2c(-c3c(F)cccc3Cl)noc2C2CC2)cc1 [Compound I-118]	108%
O=C(O)c1ccc(N2C[C@@H]3C[C@H]2C[C@H]3OCc2c(-c3ccccc3C(F)(F)F)noc2C2CC2)cc1 [Compound I-120]	112%
O=C(O)c1ccc(N2C(=O)[C@@H]3C[C@H]2C[C@H]3OCc2c(-c3c(Cl)cccc3Cl)noc2C2CC2)c(F)c1 [Compound I-315]	106%
Cc1cc(C(=O)O)cc2sc(N3C[C@@H]4C[C@H]3C[C@H]4OC(=O)c3c(-c4c(Cl)cccc4Cl)noc3C3CC3)nc12 [Compound I-3]	123%
O=C(O)c1cc(O[C@@H]2CCOC2)c2nc(N3C[C@@H]4C[C@H]3C[C@H]4OCc3c(-c4c(F)cccc4Cl)noc3C3CC3)sc2c1 [Compound I-268]	102%
O=C(O)CCc1ccc(N2C(=O)[C@@H]3C[C@H]2C[C@H]3OCc2c(-c3c(Cl)cccc3Cl)noc2C2CC2)cc1F [Compound I-305]	98%
O=C(O)c1cnc(N2C[C@@H]3C[C@H]2C[C@H]3OCc2c(-c3c(Cl)cccc3Cl)noc2C2CC2)nc1 [Compound I-145]	108%
O=C(NS(=O)(=O)C1CCC1)c1ccc(N2C[C@@H]3C[C@H]2C[C@H]3OCc2c(-c3c(Cl)cccc3Cl)noc2C2CC2)cc1 [Compound I-183]	119%
O=C(O)c1cc(C2CC2)c2nc(N3C[C@@H]4C[C@H]3C[C@H]4OCc3c(-c4c(Cl)cccc4Cl)noc3C3CC3)sc2c1 [Compound I-14]	111%
O=C(NS(=O)(=O)CC1CCOC1)c1ccc(N2C(=O)[C@@H]3C[C@H]2C[C@H]3OCc2c(-c3c(Cl)cccc3Cl)noc2C2CC2)cc1F (stereo partly shown) [Compound I-335]	108%
CS(=O)(=O)NC(=O)c1ccc(N2C[C@@H]3C[C@H]2C[C@H]3OC(=O)c2c(-c3c(Cl)cccc3Cl)noc2C2CC2)cc1 [Compound I-45]	107%
O=C(O)Cc1ccc(N2C[C@@H]3C[C@H]2C[C@H]3OCc2c(-c3c(Cl)cccc3Cl)noc2C2CC2)c(F)c1 [Compound I-153]	100%
O=P(O)(O)CCc1ccc(N2C[C@@H]3C[C@H]2C[C@H]3OCc2c(-c3c(Cl)cccc3Cl)noc2C2CC2)cc1 [Compound I-175]	101%
O=C(NS(=O)(=O)C1CC1)c1ccc(N2C[C@H]3C[C@@H]2C[C@@H]3OCc2c(-c3c(Cl)cccc3Cl)noc2C2CC2)c(F)c1 [Compound I-231]	106%
O=C(O)c1cc(F)c2nc(N3C[C@H]4C[C@@H]3[C@H](OCc3c(-c5c(Cl)cccc5Cl)noc3C3CC3)C4)sc2c1 [Compound I-65]	52%
CC(=O)OC(C)CCS(=O)(=O)NC(=O)c1ccc(N2C[C@@H]3C[C@H]2C[C@H]3OCc2c(-c3c(Cl)cccc3Cl)noc2C2CC2)cc1 (stereo partly shown) [Compound I-216]	112%
O=C(O)c1cc(F)c2nc(N3C[C@@H]4C[C@H]3C[C@@H]4OCc3c(-c4c(Cl)cccc4Cl)noc3C3CC3)sc2c1 [Compound I-37]	82%
O=C(O)CCc1ccc(N2C[C@@H]3C[C@H]2C[C@H]3OCc2c(-c3c(Cl)cccc3Cl)noc2C2CC2)c(F)c1 [Compound I-154]	105%
Cc1cccc(Cl)c1-c1noc(C2CC2)c1CO[C@@H]1C[C@@H]2C[C@H]1CN2c1nc2c(OC3CC3)cc(C(=O)O)cc2s1 [Compound I-270]	106%
O=C(NS(=O)(=O)C1CC1)c1ccc(N2C[C@@H]3C[C@H]2C[C@H]3OC(=O)c2c(-c3c(Cl)cccc3Cl)noc2C2(F)CC2)c(F)c1 [Compound I-199]	110%
CCOc1cc(C(=O)O)cc2sc(N3C[C@@H]4C[C@H]3C[C@H]4OC(=O)c3c(-c4c(Cl)cccc4Cl)noc3C3CC3)nc12 [Compound I-8]	106%
O=C(O)c1cc(F)c2nc(N3C[C@@H]4C[C@H]3C[C@H]4OCc3c(-c4c(Cl)cccc4Cl)noc3C3(F)CC3)sc2c1 [Compound I-24]	102%
O=C(O)c1cc(OC(F)(F)F)c2nc(N3C[C@@H]4C[C@H]3C[C@H]4OCc3c(C4CCCCC4)noc3C3CC3)sc2c1 [Compound I-22]	113%

Source listed as patent US10793568B2.
